Recorded pEC50 by entry
Target: T1, Human P-cadherin on cells (human, UniProt P22223 108-829)
T1 construct: whole, on cells; Endogenous P-cadherin on tumour cell lines; also called hPro1
T1 sequence (P22223 108-829): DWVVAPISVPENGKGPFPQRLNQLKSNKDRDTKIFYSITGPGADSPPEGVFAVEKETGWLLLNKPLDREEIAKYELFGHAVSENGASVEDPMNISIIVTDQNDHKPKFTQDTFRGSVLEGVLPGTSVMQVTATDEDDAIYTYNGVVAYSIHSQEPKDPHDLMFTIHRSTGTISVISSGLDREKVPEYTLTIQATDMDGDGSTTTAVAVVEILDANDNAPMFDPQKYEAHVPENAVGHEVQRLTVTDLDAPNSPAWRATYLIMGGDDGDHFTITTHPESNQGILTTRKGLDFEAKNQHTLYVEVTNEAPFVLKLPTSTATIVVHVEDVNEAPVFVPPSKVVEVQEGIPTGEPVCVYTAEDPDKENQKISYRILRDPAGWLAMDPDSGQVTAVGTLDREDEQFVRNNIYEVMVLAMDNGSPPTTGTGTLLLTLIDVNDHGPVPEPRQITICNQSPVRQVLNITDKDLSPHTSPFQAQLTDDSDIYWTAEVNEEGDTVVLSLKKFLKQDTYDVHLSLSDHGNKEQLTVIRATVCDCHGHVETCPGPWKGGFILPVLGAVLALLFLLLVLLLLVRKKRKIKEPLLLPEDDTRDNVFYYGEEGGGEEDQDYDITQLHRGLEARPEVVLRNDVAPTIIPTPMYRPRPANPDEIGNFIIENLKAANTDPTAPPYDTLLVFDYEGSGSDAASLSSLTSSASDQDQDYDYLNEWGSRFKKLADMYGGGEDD
Assay: FACS on DU-145 cells
// pEC50 is dimensionless: -log10 of concentration (M)

The cases that follow already have their pEC50 on record.
>>> reported_measurement("W3195-1.53.1-p5-uIgG1LV320 (antibody, V domains shown, also called W3195-1.53.1-p5-uIgG1V320; W3195-p5-V320 antibody) VH: QVQLQESGPGLVKPSETLSLTCTVSGGSVISDNYYWTWVRQPPGKGLEFIGYIYYRGSTNYNPSLKNRVIISIDTSRNQFSLDLNSVTAADTAVYYCARDRRTGQSLPFDNWGQGTLVTVSS VL: SYELTQPPSVSVSPGQTAQITCSGDKLGDKFASWYQQKSGQSPVVVIYQDNKRPSGFPERFSGSNSGNTATLTISGTQAMDEADYYCQAWDSSIVVFGGGTKLTVLG")
9.92
>>> reported_measurement("W3195-1.53.1-p7-uIgG1LV320 (antibody, V domains shown, also called W3195-1.53.1-p7-uIgG1V320; W3195-p7-V320 antibody) VH: QVQLQESGPGLVKPSETLSLTCTVSGGSVISDNYYWTWVRQPPGKGLEFIGYIYYRGSTNYNPSLKNRVIISIDTSRNQFSLDLNSVTAADTAVYYCARDRRTGSSLPFDNWGQGTLVTVSS VL: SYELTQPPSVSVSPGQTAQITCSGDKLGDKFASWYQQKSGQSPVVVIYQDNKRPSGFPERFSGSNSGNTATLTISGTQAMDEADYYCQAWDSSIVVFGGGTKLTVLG")
10.05
>>> reported_measurement("W3195-1.53.1-p4-uIgG1LV320 (antibody, V domains shown, V320 = IgG1 Fc with L234A/L235A; also called W3195-1.53.1-p4-uIgG1V320; W3195-p4-V320 antibody) VH: QVQLQESGPGLVKPSETLSLTCTVSGGSVISDNYYWTWVRQPPGKGLEFIGYIYYRGSTNYNPSLKNRVIISIDTSRNQFSLDLNSVTAADTAVYYCARDRRTGNALPFDNWGQGTLVTVSS VL: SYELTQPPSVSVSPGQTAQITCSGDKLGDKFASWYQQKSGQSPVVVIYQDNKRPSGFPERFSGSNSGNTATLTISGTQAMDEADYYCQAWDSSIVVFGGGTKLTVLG")
9.92

For the next question, use this binder.
Form field pEC50, entry W3195-1.53.1-p6-uIgG1LV320 (antibody, V domains shown, also called W3195-1.53.1-p6-uIgG1V320; W3195-p6-V320 antibody) VH: QVQLQESGPGLVKPSETLSLTCTVSGGSVISDNYYWTWVRQPPGKGLEFIGYIYYRGSTNYNPSLKNRVIISIDTSRNQFSLDLNSVTAADTAVYYCARDRRTGTSLPFDNWGQGTLVTVSS VL: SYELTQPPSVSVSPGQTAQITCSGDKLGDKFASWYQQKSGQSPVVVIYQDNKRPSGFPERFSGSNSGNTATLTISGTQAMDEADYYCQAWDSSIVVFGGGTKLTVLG : 10.00
